The measured values listed here are drawn from paper PMC10618793.

# Assayed Target: P2X4 receptor (Homo sapiens, UniProt Q99571)
# Construct: His tag (N); purchased MyBioSource, Inc (San Diego, CA, USA)
# Sequence (Q99571 77-338): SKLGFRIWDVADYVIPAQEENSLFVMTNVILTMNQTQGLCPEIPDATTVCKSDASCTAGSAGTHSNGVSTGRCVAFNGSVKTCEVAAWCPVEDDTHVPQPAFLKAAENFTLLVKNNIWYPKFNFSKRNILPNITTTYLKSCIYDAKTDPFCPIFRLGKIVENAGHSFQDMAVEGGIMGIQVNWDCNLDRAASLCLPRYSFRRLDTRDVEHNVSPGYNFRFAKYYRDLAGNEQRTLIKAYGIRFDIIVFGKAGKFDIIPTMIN
# Assay Summary: Surface plasmon resonance binding screening assay
# Setup Conditions: SPR Biacore T200, P2X4 immobilized on CM5 chip, 0.4-300 μM, 1:1 binding model; n.d. = not detectable; read-out: Koff (dissociation rate)
Decision: koff >= 0.1 s⁻¹ yields 1, all other cases yield -1.

Compound: C=C(C)[C@@H]1C[C@H](O)C(C)=C[C@H]1c1c(O)cc(CCCCC)cc1O [6α–OH–CBD, 6α-hydroxy cannabidiol]
Group: 1

Compound: CC(C)=CCC/C(C)=C/Cc1c(O)cc(C)c(C(=O)O)c1O
Group: 1

Compound: CCCCCc1cc(O)c(C/C=C(\C)CCC=C(C)C)c(O)c1C(=O)O
Group: 1

Compound: CCCCCc1cc2c(c(O)c1C(=O)O)[C@@H]1CC(C)=CC[C@H]1C(C)(C)O2 [Δ^8-THCA-A, Δ^8-trans-tetrahydrocannabinolic acid A]
Group: -1

Compound: CCCCCc1cc(O)c2c(c1)OC(C)(C)C1CCC(CO)=CC21 (centres unmarked)
Group: -1

Compound: C=C(C)c1ccc(C)cc1-c1c(O)cc(CCCCC)cc1O
Group: 1

Record `CCCc1cc(O)c2c(c1)OC(C)(C)c1ccc(C)cc1-2` ; criterion: koff no lower than 0.1 s⁻¹. Met?
-1

* * *

# Assayed Target: P2X4 receptor (Homo sapiens, UniProt Q99571)
# Construct: His tag (N); purchased MyBioSource, Inc (San Diego, CA, USA)
# Assay Summary: Surface plasmon resonance binding screening assay
# Setup Conditions: SPR Biacore T200, P2X4 immobilized on CM5 chip, 0.4-300 μM, 1:1 binding model; n.d. = not detectable; read-out: Koff (dissociation rate)
Recorded Metric: koff (s⁻¹)
Write the number in s⁻¹ without appending the unit.

Worked set:
Line Notation: CCCc1cc(O)c(C/C=C(\C)CCC=C(C)C)c(O)c1C(=O)O
Assayed Target: P2X4 receptor (Homo sapiens, UniProt Q99571)
Result Unit: s⁻¹
Experimental Value: 0.174

Line Notation: C=C(C)[C@@H]1CCC(C)=C[C@H]1c1c(O)cc(CCC)cc1O
Assayed Target: P2X4 receptor (Homo sapiens, UniProt Q99571)
Result Unit: s⁻¹
Experimental Value: 0.12

Please report the recorded koff for `C=C(C)[C@@H]1CCC(C)=C[C@H]1c1c(O)cc(CCCCC)cc1O` .
0.02

* * *

# Assayed Target: P2X4 receptor (Homo sapiens)
# Construct: His tag (N); purchased MyBioSource, Inc (San Diego, CA, USA)
# Assay Summary: Surface plasmon resonance binding screening assay
# Setup Conditions: SPR screening sensorgrams, Fig. 3
Recorded Metric: association/dissociation phase with P2X4 (sensorgram, in words)

Line Notation: CCCc1cc(O)c2c(c1)OC(C)(C)c1ccc(C)cc1-2
Assayed Target: P2X4 receptor (Homo sapiens)
Experimental Value: slow dissociation phase
//
Line Notation: CCCc1cc(O)c(C/C=C(\C)CCC=C(C)C)c(O)c1
Assayed Target: P2X4 receptor (Homo sapiens)
Experimental Value: slow dissociation phase
//
Line Notation: C=C(C)[C@@H]1CCC(C)=C[C@H]1c1c(O)cc(CCCCC)cc1O
Assayed Target: P2X4 receptor (Homo sapiens)
Experimental Value: slow dissociation phase
